target: Hexose transporter 1 (Plasmodium falciparum) (UniProt O97467); test: ST_JUDE_LEISH: Cytotoxicity at 2uM final concentration against transgenic Leishmania Mexicana promastigotes LmPfHT that are glucose transport deficient and complemented with the Plasmodium falciparum hexose transporter. Activity is measured by DNA content using SYBR green in vitro; type: functional
observationType: inhibition (%)
Number only, in %; omit the unit.

// worked examples, inhibition included
Cc1ncccc1C(=O)Nc1ccc(-c2cccc(-c3nc4cccc(C)c4[nH]3)c2)cc1
0.96
CCN1CCN(Cc2c(O)ccc3c(=O)c(Oc4cc(C)cc(C)c4)c(C(F)(F)F)oc23)CC1
73.3
C[C@H](NC(=O)c1c(CN2CCC(N3CCCCC3=O)CC2)c(-c2cccs2)nc2ccccc12)C1CCCCC1
0.29
COc1cc(CCN(C)Cc2ccc(OC)c(OC)c2)ccc1NC(=O)c1cccc2c(O)c3cccc(F)c3nc12
1.84
N#CCCN1CCN(Cc2cccc(-c3ccc(-c4nc5cc(F)ccc5[nH]4)cc3)c2)CC1
0.68

Req: Form field - read-out: inhibition; system: Hexose transporter 1 (Plasmodium falciparum) (UniProt O97467); submitted item: Cc1[nH]c2ccccc2c1C1CCN(CCCCNC(=O)c2ccc(-c3ccc(C#N)cc3)cc2)CC1
Resp: 9.94

Req: Form field - read-out: inhibition; system: Hexose transporter 1 (Plasmodium falciparum) (UniProt O97467); submitted item: CN(C)CCOc1cc(NC(=O)Nc2ccc(Oc3ccccc3)cc2)ccc1I
Resp: 1.64

Req: Form field - read-out: inhibition; system: Hexose transporter 1 (Plasmodium falciparum) (UniProt O97467); submitted item: CN1C(C)(C)CC(NC(=O)c2ccc(-c3cc4cc(Cl)c(Cl)cc4[nH]3)o2)CC1(C)C
Resp: 4.2

Req: Form field - read-out: inhibition; system: Hexose transporter 1 (Plasmodium falciparum) (UniProt O97467); submitted item: CCN1CCCC(CNC(=O)/C(=C/C=C/c2cc3cc(Cl)c(Cl)cc3[nH]2)OC)C1 (centres undefined)
Resp: 1.17

====

The entries below are paired with their reported inhibition.
biological target: Solute carrier family 2, facilitated glucose transporter member 1 (Homo sapiens) (UniProt P11166); assay: ST_JUDE_LEISH: Cytotoxicity at 2uM final concentration against transgenic Leishmania Mexicana promastigotes LmGLUT1 that are glucose transport deficient and complemented with the human glucose transporter GLUT1. Activity is measured by DNA content using SYBR green in vitro; format: functional
Sequence (P11166 whole entry): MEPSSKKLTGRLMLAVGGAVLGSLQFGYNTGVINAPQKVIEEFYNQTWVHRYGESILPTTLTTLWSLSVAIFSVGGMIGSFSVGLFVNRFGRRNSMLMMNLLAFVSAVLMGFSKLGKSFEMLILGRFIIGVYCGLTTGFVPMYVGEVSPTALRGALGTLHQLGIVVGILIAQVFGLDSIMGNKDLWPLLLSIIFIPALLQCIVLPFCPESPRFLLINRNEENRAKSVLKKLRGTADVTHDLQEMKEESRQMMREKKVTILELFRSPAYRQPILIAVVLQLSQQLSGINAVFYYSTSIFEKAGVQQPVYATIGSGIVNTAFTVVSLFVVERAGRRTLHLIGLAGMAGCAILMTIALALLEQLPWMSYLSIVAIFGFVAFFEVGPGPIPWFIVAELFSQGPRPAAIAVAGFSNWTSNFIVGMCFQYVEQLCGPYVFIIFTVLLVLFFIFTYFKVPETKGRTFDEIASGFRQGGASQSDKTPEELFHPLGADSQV
Number only, in %; omit the unit.

// worked examples, inhibition included
FC(F)(F)c1ccc2[nH]ccc(=NN=Cc3ccccc3Cl)c2c1
2.85
CC(=O)Nc1cccc(CN(Cc2ccc(-c3ccc(CNCc4cccnc4)cn3)cc2)C(=O)Cc2cccnc2)c1
14.6
CN(c1ccc(NC(=O)c2ccc(F)cc2)cc1)C1CCN(Cc2cccc(F)c2)C1 (stereo not drawn)
1.66

Req: Given the compound Cc1cc(N[C@@H](Cc2ccccc2)C(=O)NCCOc2ccccc2)nc(NCC2CCCCC2)n1 , what is its reported inhibition?
Resp: 6

Req: Given the compound CCOC(=O)CNCC(=O)c1ccc(OCc2ccccc2)cc1 , what is its reported inhibition?
Resp: 1.94

Req: Given the compound CC(O)C1CCCCN1C(=O)c1cccc(-c2ccc(-c3nc4cc(C(F)(F)F)ccc4[nH]3)cc2)c1 (stereo not drawn) , what is its reported inhibition?
Resp: 0.8

Req: Given the compound O=C(/C=C/c1ccc(Cl)c(Cl)c1)NCCCCCN1CCC(NC(=O)c2cc(Cl)ccc2F)CC1 , what is its reported inhibition?
Resp: 2.96

Req: Given the compound O=S(=O)(c1ccc2ccccc2c1)N1CCCN(Cc2ccc(OCCCN3CCCCC3)cc2)CC1 , what is its reported inhibition?
Resp: 63
